Origin of the recorded values: ChEMBL document CHEMBL5291721

Let's go through some AC50 measurements on Sodium-dependent noradrenaline transporter (Homo sapiens) together.
Sequence (P23975 whole entry): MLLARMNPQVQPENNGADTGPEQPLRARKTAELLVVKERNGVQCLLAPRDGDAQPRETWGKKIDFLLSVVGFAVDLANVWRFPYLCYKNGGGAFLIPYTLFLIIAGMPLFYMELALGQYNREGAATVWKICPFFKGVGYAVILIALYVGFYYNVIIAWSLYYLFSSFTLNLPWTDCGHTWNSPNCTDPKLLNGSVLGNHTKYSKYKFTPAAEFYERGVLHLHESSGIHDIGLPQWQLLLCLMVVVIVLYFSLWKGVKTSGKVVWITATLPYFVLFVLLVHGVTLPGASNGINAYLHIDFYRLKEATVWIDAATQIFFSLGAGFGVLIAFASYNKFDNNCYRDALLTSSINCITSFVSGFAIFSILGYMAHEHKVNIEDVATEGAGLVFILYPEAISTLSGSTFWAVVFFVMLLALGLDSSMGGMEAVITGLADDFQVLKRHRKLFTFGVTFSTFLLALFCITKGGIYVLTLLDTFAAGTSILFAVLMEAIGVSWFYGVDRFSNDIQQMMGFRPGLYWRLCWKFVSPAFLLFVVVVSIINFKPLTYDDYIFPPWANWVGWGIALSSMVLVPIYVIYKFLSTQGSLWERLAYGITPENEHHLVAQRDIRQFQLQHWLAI

Sample records with AC50:
Compound	Assay endpoint	Result
COc1cc2nccc(Oc3ccc(NC(=O)C4(C(=O)Nc5ccc(F)cc5)CC4)cc3)c2cc1OC [CABOZANTINIB]	AC50	> 30 µM
C=CC[C@@H]1/C=C(\C)C[C@H](C)C[C@H](OC)[C@H]2O[C@@](O)(C(=O)C(=O)N3CCCC[C@H]3C(=O)O[C@H](/C(C)=C/[C@@H]3CC[C@@H](O)[C@H](OC)C3)[C@H](C)[C@@H](O)CC1=O)[C@H](C)C[C@@H]2OC [TACROLIMUS ANHYDROUS]	AC50	> 30 µM

Below: the item to evaluate.
Please look up its AC50: CC(=O)O[C@]1(C(C)=O)CC[C@H]2[C@@H]3C=C(C)C4=CC(=O)CC[C@@H]4[C@H]3CC[C@@]21C [NOMEGESTROL ACETATE] > 30 µM
